- assayed.target: ITK (Homo sapiens)
- Sequence (Q08881 whole entry): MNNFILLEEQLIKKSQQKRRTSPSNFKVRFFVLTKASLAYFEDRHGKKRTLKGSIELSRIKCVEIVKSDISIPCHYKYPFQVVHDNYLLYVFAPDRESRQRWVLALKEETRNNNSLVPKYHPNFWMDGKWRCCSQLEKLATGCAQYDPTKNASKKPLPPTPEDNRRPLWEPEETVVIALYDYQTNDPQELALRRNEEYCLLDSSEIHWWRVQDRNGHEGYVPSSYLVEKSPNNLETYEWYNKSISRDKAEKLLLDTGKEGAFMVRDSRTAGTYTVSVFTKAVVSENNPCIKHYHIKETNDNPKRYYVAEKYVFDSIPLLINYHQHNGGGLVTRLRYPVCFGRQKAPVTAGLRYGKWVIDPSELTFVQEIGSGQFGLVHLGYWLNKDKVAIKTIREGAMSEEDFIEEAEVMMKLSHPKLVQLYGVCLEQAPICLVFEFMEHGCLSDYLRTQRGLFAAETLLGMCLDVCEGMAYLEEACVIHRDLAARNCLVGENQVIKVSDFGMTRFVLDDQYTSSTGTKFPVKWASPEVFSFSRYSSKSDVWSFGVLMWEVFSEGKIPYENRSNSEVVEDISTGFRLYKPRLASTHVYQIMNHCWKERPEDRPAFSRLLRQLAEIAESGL
- procedure.summary: Inhibition of a panel of kinases, in vitro HotSpot kinase assay: ITK
- Format: biochemical
- condition.notes: D-compounds panel data; 1 μM ATP
pIC50: −log10 of the molar value.
measurement.type: pIC50

Please review the entries below; each comes with its answer.
{"smiles": "C[C@@H]1[C@H](NC(=O)c2ccc(C(C)(C)C)cc2)CCCN1c1nnc(C(N)=O)c(Nc2cnn(C)c2)n1", "pIC50": "7.00 to 8.00"}
{"smiles": "C[C@@H]1[C@H](NC(=O)c2ccc(C3CC3)cc2)CCCN1c1cnc(C(N)=O)c(Nc2ccc(N3CCC(C(=O)N(C)C)CC3)cc2)n1", "pIC50": "7.00 to 8.00"}
{"smiles": "C[C@@H]1[C@H](NC(=O)c2ccc(C(C)(C)C)cc2)CCCN1c1cnc(C(N)=O)c(Nc2cnn(C)c2)n1", "pIC50": "5.00 to 6.00"}

# pIC50 of "C[C@@H]1[C@H](NC(=O)c2cc(C(C)(C)C)on2)CCCN1c1cnc(C(N)=O)c(Nc2cnn(C)c2)n1" = 6.00 to 7.00

# pIC50 of "C[C@H]1CC[C@@H](NC(=O)c2ccc(C3CC3)cc2)CN1c1cnc(C(N)=O)c(Nc2cnn(C)c2)n1" = 5.00 to 6.00

# pIC50 of "C[C@@H]1[C@H](NC(=O)c2ccc(C(C)(C)C#N)cc2)CCCN1c1cnc(C(N)=O)c(Nc2ccc(OC3CCN(C)CC3)cc2)n1" = 7.00 to 8.00

###

- assayed.target: EGFR (Homo sapiens)
- procedure.summary: Inhibition of a panel of kinases, in vitro HotSpot kinase assay: EGFR
- Format: biochemical
- condition.notes: Table 13, A compounds; 1 μM ATP
measurement.type: IC50

{"smiles": "CN1CCN(Cc2ccc(Nc3nc(N4CCC[C@@H](n5ccc6cc(C7CC7)ccc6c5=O)C4)cnc3C(N)=O)cc2)CC1", "measurement.type": "IC50", "value.observed": "1 to 10 µM"}

Consider the record given below.
# IC50 of "C[C@@H]1[C@H](NC(=O)c2ccc(C3CC3)cc2F)CCCN1c1cnc(C(N)=O)c(Nc2ccc(N3CCN(C)C[C@@H]3C)cc2)n1" = 0.1 to 1 µM

###

- assayed.target: EGFR (Homo sapiens, UniProt P00533)
- Sequence (P00533 25-1210): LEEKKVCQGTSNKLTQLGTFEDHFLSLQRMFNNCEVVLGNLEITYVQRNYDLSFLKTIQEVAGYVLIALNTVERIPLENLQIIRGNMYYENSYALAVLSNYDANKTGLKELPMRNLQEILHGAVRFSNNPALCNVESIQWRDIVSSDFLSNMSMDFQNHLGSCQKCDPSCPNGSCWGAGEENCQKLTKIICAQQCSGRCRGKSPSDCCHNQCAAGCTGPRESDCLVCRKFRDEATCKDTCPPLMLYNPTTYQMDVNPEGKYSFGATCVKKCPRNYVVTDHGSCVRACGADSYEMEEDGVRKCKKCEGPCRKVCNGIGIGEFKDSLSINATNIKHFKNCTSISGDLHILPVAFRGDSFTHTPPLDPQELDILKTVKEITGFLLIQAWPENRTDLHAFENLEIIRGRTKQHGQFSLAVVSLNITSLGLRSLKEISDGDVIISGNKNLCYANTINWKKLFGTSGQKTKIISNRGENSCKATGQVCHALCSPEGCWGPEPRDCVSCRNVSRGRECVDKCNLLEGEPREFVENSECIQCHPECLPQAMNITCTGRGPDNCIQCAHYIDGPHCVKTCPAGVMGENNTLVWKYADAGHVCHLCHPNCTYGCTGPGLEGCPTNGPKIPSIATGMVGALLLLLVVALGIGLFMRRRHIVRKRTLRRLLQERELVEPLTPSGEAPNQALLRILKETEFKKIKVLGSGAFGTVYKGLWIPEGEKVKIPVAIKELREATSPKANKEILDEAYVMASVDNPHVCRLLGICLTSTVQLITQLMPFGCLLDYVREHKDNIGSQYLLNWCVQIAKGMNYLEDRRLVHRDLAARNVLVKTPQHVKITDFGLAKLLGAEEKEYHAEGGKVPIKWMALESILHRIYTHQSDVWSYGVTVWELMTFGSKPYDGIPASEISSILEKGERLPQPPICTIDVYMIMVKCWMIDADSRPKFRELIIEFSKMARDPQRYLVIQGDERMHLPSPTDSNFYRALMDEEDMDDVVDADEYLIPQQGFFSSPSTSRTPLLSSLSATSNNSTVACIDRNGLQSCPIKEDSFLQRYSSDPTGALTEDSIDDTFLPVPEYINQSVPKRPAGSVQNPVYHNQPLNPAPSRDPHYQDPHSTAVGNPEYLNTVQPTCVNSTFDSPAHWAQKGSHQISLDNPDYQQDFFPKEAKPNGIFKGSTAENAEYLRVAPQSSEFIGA
- procedure.summary: Inhibition of a panel of kinases, in vitro HotSpot kinase assay: EGFR
- Assay type: biochemical
- condition.notes: D-compounds panel data; 1 μM ATP
Entries and their IC50 values follow.

Please review the entries below; each comes with its answer.
{"compound": "Cn1cc(Nc2nc(N3C[C@H](CO)C[C@H](NC(=O)c4ccc(C5CC5)cc4)C3)cnc2C(N)=O)cn1 (racemic)", "IC50": "1000 to 10000 nM"}
{"compound": "Cc1cc(Nc2nc(N3C[C@H](NC(=O)c4ccc(C5CC5)cc4F)CC[C@@H]3C)cnc2C(N)=O)sn1", "IC50": "100 to 1000 nM"}
{"compound": "C[C@@H]1[C@H](NC(=O)c2ccc(SC(F)(F)F)cc2)CCCN1c1cnc(C(N)=O)c(Nc2cnn(C)c2)n1", "IC50": "100 to 1000 nM"}
{"compound": "C[C@@H]1[C@H](NC(=O)N(C)C)CCCN1c1cnc(C(N)=O)c(Nc2cc(C3CCOCC3)ns2)n1", "IC50": "100 to 1000 nM"}
{"compound": "C[C@@H]1[C@H](NC(=O)c2ccc(C3CC3)cc2)CCCN1c1cnc(C(N)=O)c(Nc2cnn(C)c2)n1", "IC50": "1000 to 10000 nM"}

# IC50 of "CC(C)c1ccc(S(=O)(=O)N[C@@H]2CCCN(c3cnc(C(N)=O)c(Nc4cnn(C)c4)n3)[C@@H]2C)cc1" = > 10000 nM

# IC50 of "C[C@@H]1[C@H](NC(=O)N(C)C)CCCN1c1cnc(C(N)=O)c(Nc2ccc(N3CCC(F)(F)CC3)cc2)n1" = 1000 to 10000 nM

# IC50 of "C[C@H]1C[C@@H](NC(=O)c2ccc(C3CC3)cc2)CN(c2cnc(C(N)=O)c(Nc3cnn(C)c3)n2)C1" = > 10000 nM

# IC50 of "C[C@@H]1[C@H](NC(=O)c2ccc(C(C)(C)C)cn2)CCCN1c1cnc(C(N)=O)c(Nc2cnn(C)c2)n1" = 1000 to 10000 nM

# IC50 of C[C@@H]1[C@H](NC(=O)c2ccc(C(C)(O)CO)cc2)CCCN1c1cnc(C(N)=O)c(Nc2cnn(C)c2)n1 (single isomer, unassigned) [Example D-265] = 100 to 1000 nM

# IC50 of "C[C@@H]1[C@H](NC(=O)c2ccc(C3CC3)cc2)CCCN1c1cnc(C(N)=O)c(Nc2ccc3c(c2)OC(F)(F)O3)n1" = > 10000 nM

# IC50 of "C[C@@H]1[C@H](NC(=O)c2ccc3scnc3c2)CCCN1c1cnc(C(N)=O)c(Nc2cnn(C)c2)n1" = 1000 to 10000 nM
